Where do the numbers come from? From patent US12329739B2.

# System: COLO205
# Assay explanation: MTT proliferation assay, COLO205
# Type: cell-based, human
# Protocol conditions: Homo sapiens, COLO 205; CRC, COLO205, 120 h of exposure
# Experimental: The human non-small cell lung adenocarcinoma lines NCI-H1299 (CRL-5803), NCI-H460 (HTB-177), NCI-H358 (CRL-5807), NCI-H838 (CRL-5844), the human colorectal adenocarcinoma lines COLO 205 (CCL-222), HCT-15 (CCL-225) and the human gastric cancer cell line NCI-N87 (CRL-5822) were cultured in RPMI 1640 medium containing 2 g/L sodium bicarbonate (Hyclone/Invitrogen) supplemented with 2 mM L-glutamine (Gibco) 1 mM sodium pyruvate (Sigma), 10 mM HEPES (Sigma) and 4500 mg/L glucose (Sigma). […]
pIC50: −log10 of the molar value.
Test readout: pIC50

# annotated cases, reported pIC50 shown
| Compound | Test readout | Test value |
| --- | --- | --- |
| Cc1c(O)ccc2c1OC[C@@H](c1ccc(O)cc1)[C@H]2c1ccc(O)cc1 [d-5] | pIC50 | 5.82 to 6.29 |
| COc1ccc([C@H]2c3ccc(O)c(C)c3OC[C@H]2c2ccc(O)cc2)cc1C [d-7] | pIC50 | ≤ 5.00 |
| COc1ccc([C@@H]2c3ccc(O)c(C)c3OC[C@@H]2c2ccc(O)cc2)cc1C [l-7] | pIC50 | ≤ 5.00 |
| Cc1c(O)ccc2c1OCC(c1ccc(O)cc1)C2c1ccc(O)cc1 (centres unmarked) [Compound 5] | pIC50 | 5.00 to 5.80 |

-- ask Item Oc1ccc([C@H]2c3ccc(O)cc3OC[C@H]2c2ccc(O)cc2)cc1 [Compound 31] with COLO205 - pIC50?
-- reply 5.00 to 5.80

###

# System: A2058
# Assay explanation: MTT proliferation assay, A2058
# Type: cell-based
# Protocol conditions: Table 2, Melanoma, A2058, 120 hrs of exposure
pIC50: −log10 of the molar value.
Test readout: pIC50

-- ask Value lookup for pIC50; key = Oc1ccc([C@H]2c3ccc(O)cc3OC[C@H]2c2ccc(O)cc2)cc1
-- reply ≥ 6.82

###

Catalogue of IC50 readings, one per entry.
# System: NCI-H460
# Assay explanation: MTT proliferation assay, NCI-H460
# Assay type: cell-based, human
# Protocol conditions: Homo sapiens; NSCLC, NCI-H460, 120 h of exposure

Answered cases to consult:
| Compound | IC50 |
| --- | --- |
| Cc1c(O)ccc2c1OC[C@@H](c1ccc(O)cc1)[C@H]2c1ccc(O)cc1 | ≤ 150 nM |
| COc1ccc(C2c3ccc(O)c(C)c3OCC2c2ccc(O)cc2)cc1C (centres unmarked) | 1600 to 10000 nM |
| COc1ccc([C@H]2c3ccc(O)c(C)c3OC[C@H]2c2ccc(O)cc2)cc1C | 1600 to 10000 nM |
| Oc1ccc([C@H]2c3ccc(O)cc3OC[C@H]2c2ccc(O)cc2)cc1 | 510 to 1500 nM |

-- ask Recorded IC50 of Cc1c(O)ccc2c1OCC(c1ccc(O)cc1)C2c1ccc(O)cc1 (centres unmarked) , please.
-- reply 150 to 500 nM

###

# System: COLO205
# Assay explanation: MTT proliferation assay, COLO205
# Assay type: cell-based, human
# Protocol conditions: Homo sapiens, COLO 205; CRC, COLO205, 120 h of exposure
Test readout: IC50

| Compound | System tested | IC50 |
| --- | --- | --- |
| Cc1c(O)ccc2c1OC[C@H](c1ccc(O)cc1)[C@@H]2c1ccc(O)cc1 | COLO205 | ≥ 10 µM |
| COc1ccc(C2c3ccc(O)c(C)c3OCC2c2ccc(O)cc2)cc1C (stereo not drawn) | COLO205 | ≥ 10 µM |

Next item in the queue.
-- ask For Cc1cc(C2c3ccc(O)c(C)c3OCC2c2ccc(O)cc2)ccc1O (stereo not drawn) , what is its reported IC50?
-- reply 1.6 to 10 µM
